- subject_of_test: human recombinant GPR65 (Homo sapiens, UniProt Q8IYL9)
- Sequence (Q8IYL9 whole entry): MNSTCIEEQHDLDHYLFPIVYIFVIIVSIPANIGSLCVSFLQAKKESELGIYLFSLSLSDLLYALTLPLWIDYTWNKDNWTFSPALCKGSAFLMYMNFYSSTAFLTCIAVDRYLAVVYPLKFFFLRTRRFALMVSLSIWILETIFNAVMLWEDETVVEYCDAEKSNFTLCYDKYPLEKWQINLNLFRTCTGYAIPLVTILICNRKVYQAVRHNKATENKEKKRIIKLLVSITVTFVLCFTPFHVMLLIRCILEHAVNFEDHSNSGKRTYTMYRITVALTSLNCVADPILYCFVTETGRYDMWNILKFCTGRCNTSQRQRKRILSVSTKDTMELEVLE
- method: Human GPR65 cAMP HTRF antagonist assay
- Type: cell-based
parameter: IC50

Worked cases, answers included:
{"compound": "O=C1NN=C2C(=CC3CCC2N3C(=O)Nc2cc(Cl)c(-c3ccc(F)nc3)cc2F)N1 (racemic)", "subject_of_test": "human recombinant GPR65 (Homo sapiens, UniProt Q8IYL9)", "parameter": "IC50", "measured_result": "< 500 nM"}
{"compound": "O=C1NN=C2C(=C[C@@H]3CC[C@H]2N3C(=O)Nc2cc(Cl)c(C(F)(F)F)cc2F)N1", "subject_of_test": "human recombinant GPR65 (Homo sapiens, UniProt Q8IYL9)", "parameter": "IC50", "measured_result": "< 500 nM"}
{"compound": "O=C1NN=C2C(=CC3CCC2N3C(=O)Nc2cc(Cl)c(C(F)(F)F)cc2F)N1 (racemic)", "subject_of_test": "human recombinant GPR65 (Homo sapiens, UniProt Q8IYL9)", "parameter": "IC50", "measured_result": "< 500 nM"}
{"compound": "CC(C)Oc1ccc(-c2cc(F)c(NC(=O)N3[C@@H]4C=C5NC(=O)NN=C5[C@H]3CC4)cc2Cl)cn1", "subject_of_test": "human recombinant GPR65 (Homo sapiens, UniProt Q8IYL9)", "parameter": "IC50", "measured_result": "< 500 nM"}

Incoming: For the record O=C1NN=C2C(=C[C@@H]3CC[C@H]2N3C(=O)Nc2cc(Cl)c(-c3ccc(OCC(F)(F)F)nc3)cc2F)N1 , what value of IC50 is listed for human recombinant GPR65 (Homo sapiens, UniProt Q8IYL9)?
Outgoing: < 500 nM
